Assay: Stability in potassium phosphate buffers of pH 1.3, 5.5 and 7.4
Format: physicochemical
Settings: potassium phosphate buffer, Acidic (pH 1.3), read-out: % Remaining at 60 min
assay-metric: remaining at 1 h, 2 µM (%)
Provide the reading as a plain figure in %.

# compound CCOc1ccc2ccc(=O)oc2c1 [7-Ethoxycoumarin, reference compound] ; its remaining at 1 h, 2 µM = 89

* * *

Assay: Metabolic stability in cryopreserved cynomolgus monkey hepatocytes
Type: in vitro ADME
Conditions: cryopreserved hepatocytes, Cynomolgus monkey hepatocytes 0.5 million cells/mL, read-out: % Remaining at 30 min
Ends that are not written are not given here.
assay-metric: remaining at 0.5 h, 2 µM (%)
Enter your answer as a number in %; do not include the unit.

For record LRKLRKRLLRLVGRQLEEFL [HM-10/10, LRKLRKRLLRLVGRQLEEFL] the listed remaining at 0.5 h, 2 µM is 18.5

* * *

Experiment: Test article stability over 24 h incubation with hepatocytes in the induction assay
Assay type: in vitro ADME, human
Details: human, plated human hepatocytes, three single-donor lots, 25 µM, average of three lots, both days
Description: For each 24 h incubation, 50 µL of each medium containing the test article (HM-10/10) were collected at the start (T0) and end of 24 h incubation (T24) and quenched with 300 µL of 1% perchloric acid in methanol and 50 µL of internal standard cocktail (carbutamide, chrysin, and glyburide each at 1.71 µg/mL water). These samples were analyzed to test the stability of HM-10/10 after 24 h incubation with the hepatocytes. The quenched sample plates were stored covered in a −20 °C freezer.
Ends that are not written are not given here.
assay-metric: remaining at 24 h, 25 µM (%)
Write the value in % as a bare number.

Record summary for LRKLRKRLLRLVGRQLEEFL [HM-10/10, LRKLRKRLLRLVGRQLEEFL] : reported remaining at 24 h, 25 µM = 0.3

* * *

Experiment: Metabolic stability in cryopreserved beagle dog hepatocytes
Type: in vitro ADME
Details: dog, hepatocytes, Beagle dog hepatocytes 0.5 million cells/mL; 2 μM; read-out: CLint (L/hr/kg) (converted)
Ends that are not written are not given here.
assay-metric: CLint scaled (L/h/kg)
Use L/h/kg as the unit, but write only the number.

In plain terms, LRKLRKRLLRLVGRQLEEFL [HM-10/10, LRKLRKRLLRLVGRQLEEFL] has a documented CLint scaled of 42

* * *

Assay: Metabolic stability in cryopreserved Sprague-Dawley rat hepatocytes
Assay type: in vitro ADME
Conditions: cryopreserved hepatocytes, Sprague-Dawley rat hepatocytes 0.5 million cells/mL
Ends that are not written are not given here.
assay-metric: half-life at 2 µM (min)
Respond with the bare value in min.

For reference, reported half-life at 2 µM for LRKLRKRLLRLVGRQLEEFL [HM-10/10, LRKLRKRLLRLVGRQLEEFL] stands at 5.81

* * *

Assay: in vitro
Details: beagle, dog, plasma, pH 7.4
assay-metric: remaining at 2.5 h, 2 µM
Returns: string containing the number followed by the unit.

Record CC(=O)CC(c1ccccc1)c1c(O)c2ccccc2oc1=O (stereo not shown) , field remaining at 2.5 h, 2 µM: 105%

* * *

Experiment: Stability in potassium phosphate buffers of pH 1.3, 5.5 and 7.4
Format: physicochemical
Settings: potassium phosphate buffer, Acidic (pH 1.3)
assay-metric: half-life at 2 µM

Reported half-life at 2 µM for CCOc1ccc2ccc(=O)oc2c1 [7-Ethoxycoumarin, reference compound] was 13.5 h

* * *

Assay: Metabolic stability in cynomolgus monkey liver microsomes
Type: in vitro ADME
Conditions: cynomolgus monkey, microsomes, Cynomolgus monkey liver microsomes 0.5 mg protein/mL; 2 μM; read-out: CLint (mL/min/kg)
Ends that are not written are not given here.
assay-metric: CLint scaled (mL/min/kg)
Provide the reading as a plain figure in mL/min/kg.

Briefly, CLint scaled measured for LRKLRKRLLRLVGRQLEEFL [HM-10/10, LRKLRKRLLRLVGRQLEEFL] : 85.8

* * *

Target: CYP2C19 (Homo sapiens, UniProt P33261)
Sequence (P33261 whole entry): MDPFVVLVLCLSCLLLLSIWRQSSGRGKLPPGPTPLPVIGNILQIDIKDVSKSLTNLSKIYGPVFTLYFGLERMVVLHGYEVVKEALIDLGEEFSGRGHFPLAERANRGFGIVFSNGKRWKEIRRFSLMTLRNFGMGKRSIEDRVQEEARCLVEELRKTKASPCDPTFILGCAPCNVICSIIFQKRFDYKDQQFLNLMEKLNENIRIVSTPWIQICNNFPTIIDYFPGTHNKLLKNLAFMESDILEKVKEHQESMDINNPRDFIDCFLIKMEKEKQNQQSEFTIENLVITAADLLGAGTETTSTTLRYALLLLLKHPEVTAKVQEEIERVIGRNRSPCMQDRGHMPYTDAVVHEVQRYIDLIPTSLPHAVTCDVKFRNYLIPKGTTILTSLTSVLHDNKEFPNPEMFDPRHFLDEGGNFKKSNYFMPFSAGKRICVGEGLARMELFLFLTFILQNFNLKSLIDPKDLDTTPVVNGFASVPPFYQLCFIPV
Assay: in vitro
Conditions: both, microsomes, pH 7.4, % Inhibition at 50 µM No PI + NADPH
assay-metric: inhibition at 30 min, 50 µM (%)
A number alone suffices; assume %.

inhibition at 30 min, 50 µM in this record for COc1ccc2[nH]c([S+]([O-])Cc3ncc(C)c(OC)c3C)nc2c1 (stereo not shown) [Omeprazole, omeprazole] : 92.9

* * *

Test: Protein binding in cynomolgus monkey plasma (ultracentrifugation)
Conditions: monkey, plasma (K2EDTA), pH 7.4
Ends that are not written are not given here.
assay-metric: remaining at 2.5 h, 2 µM
Be sure to follow the number with its unit.

Measured remaining at 2.5 h, 2 µM of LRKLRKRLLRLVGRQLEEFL [HM-10/10, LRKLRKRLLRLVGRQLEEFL] : 25.9%

* * *

Target: CYP2D6 (Homo sapiens)
Sequence (P10635 whole entry): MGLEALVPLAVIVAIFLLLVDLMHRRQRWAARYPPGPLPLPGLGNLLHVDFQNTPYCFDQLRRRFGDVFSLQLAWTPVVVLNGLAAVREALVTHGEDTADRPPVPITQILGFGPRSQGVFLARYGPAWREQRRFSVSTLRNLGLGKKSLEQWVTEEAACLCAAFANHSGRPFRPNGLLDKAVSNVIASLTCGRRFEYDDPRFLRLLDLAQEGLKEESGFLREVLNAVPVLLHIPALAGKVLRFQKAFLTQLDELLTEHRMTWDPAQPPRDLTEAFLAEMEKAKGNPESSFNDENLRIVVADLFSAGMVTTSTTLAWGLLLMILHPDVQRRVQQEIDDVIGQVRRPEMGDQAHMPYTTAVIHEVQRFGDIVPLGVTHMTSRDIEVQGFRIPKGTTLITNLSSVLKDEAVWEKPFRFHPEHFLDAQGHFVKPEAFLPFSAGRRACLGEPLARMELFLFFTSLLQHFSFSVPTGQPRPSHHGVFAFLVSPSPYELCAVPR
Assay: in vitro
Settings: both, microsomes, pH 7.4, % Inhibition at 50 µM PI − NADPH
assay-metric: inhibition at 30 min, 50 µM (%)
Give the number; % is assumed, so skip it.

Form field inhibition at 30 min, 50 µM, entry Fc1ccc([C@@H]2CCNC[C@H]2COc2ccc3c(c2)OCO3)cc1 : 99

* * *

Experiment: Metabolic stability in human liver microsomes
Type: in vitro ADME
Conditions: pooled liver microsomes, pH 7.4, Human liver microsomes 0.5 mg protein/mL, read-out: % Remaining at 120 min
Ends that are not written are not given here.
assay-metric: remaining at 2 h, 2 µM (%)
// units = %; emit number, no label

Sample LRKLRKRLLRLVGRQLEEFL [HM-10/10, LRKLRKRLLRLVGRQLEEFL] ; remaining at 2 h, 2 µM observed: 1.4

* * *

Assay: Metabolic stability in cryopreserved Sprague-Dawley rat hepatocytes
Format: in vitro ADME
Settings: rat, hepatocytes, Sprague-Dawley rat hepatocytes 0.5 million cells/mL; 2 μM; read-out: CLint (mL/min/kg)
Ends that are not written are not given here.
assay-metric: CLint scaled (mL/min/kg)
Give your result in mL/min/kg as a bare value.

Recorded result, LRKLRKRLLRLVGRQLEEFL [HM-10/10, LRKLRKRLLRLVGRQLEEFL] , CLint scaled: 1260

* * *

Experiment: Metabolic stability in beagle dog liver microsomes
Type: in vitro ADME
Conditions: dog, microsomes, Beagle dog liver microsomes 0.5 mg protein/mL; 2 μM; read-out: CLint (L/hr/kg) (converted)
Ends that are not written are not given here.
assay-metric: CLint scaled (L/h/kg)
Write the value in L/h/kg as a bare number.

What the record says about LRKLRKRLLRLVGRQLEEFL [HM-10/10, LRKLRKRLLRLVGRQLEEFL] : CLint scaled is 2.83

* * *

Experiment: in vitro
Details: Sprague-Dawley, rat, plasma, pH 7.4
Ends that are not written are not given here.
assay-metric: half-life at 2 µM (h)
Supply the numeric figure in h, leaving out any unit text.

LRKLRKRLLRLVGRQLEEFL [HM-10/10, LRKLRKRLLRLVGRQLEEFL] yielded half-life at 2 µM of 1.38

* * *

Test: Stability in potassium phosphate buffers of pH 1.3, 5.5 and 7.4
Type: physicochemical
Settings: potassium phosphate buffer, Slightly Acidic (pH 5.5), read-out: % Remaining at 60 min
assay-metric: remaining at 1 h, 2 µM (%)
Form entry: value (%) — number only.

Entry CCOc1ccc2ccc(=O)oc2c1 [7-Ethoxycoumarin, reference compound] , remaining at 1 h, 2 µM reported as 90

* * *

Experiment: Metabolic stability in human liver microsomes
Type: in vitro ADME
Details: pooled liver microsomes, pH 7.4, Human liver microsomes 0.5 mg protein/mL
Ends that are not written are not given here.
assay-metric: half-life at 2 µM (min)
Kindly answer with a numeric value in min, unit omitted.

For this sequence ( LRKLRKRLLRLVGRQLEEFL [HM-10/10, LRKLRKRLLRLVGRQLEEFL] ), measured half-life at 2 µM is 20.3

* * *

Experiment: in vitro
Settings: cynomolgus monkey, plasma, pH 7.4
Ends that are not written are not given here.
assay-metric: remaining at 2 h, 2 µM
Be sure to follow the number with its unit.

// remaining at 2 h, 2 µM value for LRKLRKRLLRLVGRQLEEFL [HM-10/10, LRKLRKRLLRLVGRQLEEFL] : 21.9%

* * *

Test: in vitro
Conditions: cynomolgus monkey, plasma, pH 7.4
assay-metric: half-life at 2 µM (h)
Record the value in h, omitting the unit from your answer.

// recorded half-life at 2 µM for CC(C)[N+](C)(CCOC(=O)C1c2ccccc2Oc2ccccc21)C(C)C [Propantheline, propantheline] : 11.1

* * *

Assay: in vitro
Conditions: CD-1, mouse, plasma, pH 7.4
assay-metric: remaining at 2 h, 2 µM (%)
Unit % implied. Number only.

Quick note, remaining at 2 h, 2 µM for CC(C)[N+](C)(CCOC(=O)C1c2ccccc2Oc2ccccc21)C(C)C [Propantheline, propantheline] landed at 27
